# Test: Plasma and tumor pharmacokinetics in A2058 xenograft mice
# Format: in vivo, BALB/c nude mice
# Conditions: BALB/c nude, mouse, plasma, oral; 24 h; single dose p.o.; Compound 1 10 mg/kg; Encorafenib 35 mg/kg; Dabrafenib 100 mg/kg; read-out: Concentration in Plasma ± SEM
Readings of concentration at 24 h for the listed compounds

Substance Smiles | concentration at 24 h, ng/mL
CC(C)(C)c1nc(-c2cccc(NS(=O)(=O)c3c(F)cccc3F)c2F)c(-c2ccnc(N)n2)s1 | 61.3
COC(=O)N[C@@H](C)CNc1nccc(-c2cn(C(C)C)nc2-c2cc(Cl)cc(NS(C)(=O)=O)c2F)n1 | 138
CCN(C)S(=O)(=O)Nc1ccc(F)c(Oc2ccc3ncn([C@H]4COC5(CCN(C(=O)CC6(O)CCN(c7cc8c(cc7F)c(N7CCC(=O)NC7=O)nn8C)CC6)CC5)C4)c(=O)c3c2)c1C#N | 190

###

# Test: Approximate solubility at 25° C. and 50° C. (visual)
# Assay type: physicochemical
# Conditions: 2-MeTHF, 25 °C, organic solvent or mixture, thermodynamic from solid, 2-MeTHF, 25° C.; read-out: Solubility

Compound | solubility
CCN(C)S(=O)(=O)Nc1ccc(F)c(Oc2ccc3ncn([C@H]4COC5(CCN(C(=O)CC6(O)CCN(c7cc8c(cc7F)c(N7CCC(=O)NC7=O)nn8C)CC6)CC5)C4)c(=O)c3c2)c1C#N [Compound 1 Form A] | 5 to 7 mg/mL

###

# Test: Approximate solubility at 25° C. and 50° C. (visual)
# Assay type: physicochemical
# Conditions: water, 50 °C, water, thermodynamic from solid, Water, 50° C.; read-out: Solubility
Assay Endpoint: solubility

Compound | Endpoint Value
CCN(C)S(=O)(=O)Nc1ccc(F)c(Oc2ccc3ncn([C@H]4COC5(CCN(C(=O)CC6(O)CCN(c7cc8c(cc7F)c(N7CCC(=O)NC7=O)nn8C)CC6)CC5)C4)c(=O)c3c2)c1C#N [Compound 1 Form A] | < 10000 µg/mL

###

# Test: Solubility data for Compound 1 drug substance
# Assay type: physicochemical
# Conditions: aqueous buffer; 100 mM pH 3.0 citrate buffer solution, pH 3.02

Substance Smiles | solubility, µg/mL
CCN(C)S(=O)(=O)Nc1ccc(F)c(Oc2ccc3ncn([C@H]4COC5(CCN(C(=O)CC6(O)CCN(c7cc8c(cc7F)c(N7CCC(=O)NC7=O)nn8C)CC6)CC5)C4)c(=O)c3c2)c1C#N | 2090

###

# Test: Plasma and tumor pharmacokinetics in A2058 xenograft mice
# Type: in vivo, BALB/c nude mice
# Conditions: BALB/c nude, mouse, plasma, oral; 12 h; single dose p.o.; Compound 1 10 mg/kg; Encorafenib 35 mg/kg; Dabrafenib 100 mg/kg; read-out: Concentration in Plasma ± SEM
Readings of concentration at 12 h for the listed compounds

Compound | concentration at 12 h / ng/mL
COC(=O)N[C@@H](C)CNc1nccc(-c2cn(C(C)C)nc2-c2cc(Cl)cc(NS(C)(=O)=O)c2F)n1 [encorafenib] | 397
CCN(C)S(=O)(=O)Nc1ccc(F)c(Oc2ccc3ncn([C@H]4COC5(CCN(C(=O)CC6(O)CCN(c7cc8c(cc7F)c(N7CCC(=O)NC7=O)nn8C)CC6)CC5)C4)c(=O)c3c2)c1C#N [Compound 1] | 429
CC(C)(C)c1nc(-c2cccc(NS(=O)(=O)c3c(F)cccc3F)c2F)c(-c2ccnc(N)n2)s1 [dabrafenib] | 189
